- assayInfo: small-molecule binders of probe aInhba, primary screen, biochemical, small-molecule microarray, 635/667 nm fluorescence (AID 1148);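 further: score merges 667nm spot fluorescence with signal-to-noise for antibody binding to printed compounds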
- settings: higher = more signal
quantity: composite z-score
Please give the numeric answer without any surrounding text.

Return reported composite z-score; argument: CCCC[C@H]1OB(O)C[C@H]2C1=C(COc1ccccc1)C[C@H]1C(=O)N(C)C(=O)[C@H]12
-0.0933

Try O=C1NC(=O)C2C1C=CC(C(O)Cc1ccccc1)N2Nc1ccc(Cl)cc1Cl (centres undefined) next.
0.0345

Try COCCOC(=O)N1C(=O)[C@@]2(c3cc(C#CC4=CCCCC4)ccc31)[C@H](C(=O)N1CCc3cc(OC)c(OC)cc3C1)[C@H]1C(=O)O[C@H](c3ccccc3)[C@H](c3ccccc3)N1[C@@H]2c1ccc(OCCO)cc1 next.
0.0649

Try CCCC=C(CCC)[C@@H](NS(=O)(=O)c1cccs1)c1ccc(C(=O)OC)cc1 next.
0.16

Try C=CC[C@@]1(C(=O)N(C)C)N=C(c2ccc(OCCCO)cc2)O[C@@H]1c1ccccc1N=[N+]=[N-] next.
0.274

Try CC(=O)n1cc(C(O)C2C=CC3C(=O)N(C)C(=O)C3N2Nc2ccccc2)c2ccccc21 (centres undefined) next.
0.246

Try CCN(CC)c1ccc(N2CC=CC34O[C@@H]5/C=C\CCC(C)OC(=O)C5[C@H]3C(=O)N(C(CO)C(C)C)[C@@H]4C2=O)cc1 (some centres undefined) next.
-0.108

Try CCCCCN1CC=CC23O[C@@H]4/C=C\CCCOC(=O)C4[C@H]2C(=O)N(C(CO)C(C)C)[C@@H]3C1=O (some centres undefined) next.
-0.128

Try COC(=O)[C@@]1(Cc2ccc(F)cc2)[C@H]2c3cc(C(=O)N4CCCC4)n(Cc4ccc(C)o4)c3C[C@H]2CN1C(=O)c1ccccc1 next.
0.0108

Try O=C(O)[C@@]1(CCS(=O)(=O)c2ccccc2)COC(c2ccc(OCCCO)cc2)=N1 next.
-0.108

Try CN(C)CCCNC(=O)[C@@]1(c2ccc([N+](=O)[O-])cc2)CC(=O)N(C2CCCCC2)[C@@H]1c1ccc(CO)cc1I next.
-0.016

Try C=CCNC(=O)[C@@H]1[C@H]2C(=O)O[C@H](c3ccccc3)[C@H](c3ccccc3)N2[C@H](c2ccc(OCCO)cc2)[C@@]12C(=O)Nc1ccc(C#CCCO)cc12 next.
1.15

Try COCCCNC(=O)[C@@]1(Cc2ccccc2N=[N+]=[N-])N=C(c2ccc(OCCCO)cc2)O[C@H]1c1ccccc1N=[N+]=[N-] next.
0.3

Try C=CCNC(=O)[C@@H]1[C@H]2C(=O)O[C@H](c3ccccc3)[C@H](c3ccccc3)N2[C@H](c2ccccc2OCCO)[C@@]12C(=O)N(C(=O)OCCOC)c1ccc(C#CCNC(N)=O)cc12 next.
0.115

###

Answer each item with its documented z-score.
- assayInfo: cell viability in Huh7 cells, primary screen, cytotoxicity control for HCV replication inhibitor project, CellTiter-Glo luminescence, basal, 48 h (AID 1143);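 further: Huh7 hepatoma cells carrying a hepatitis C replication reporter with no stimulus; test concentration not given here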
- settings: Huh7 HCV replicon, higher = more signal, called active from +8 up or from −8 down
Please give the numeric answer without any surrounding text.

Return reported z-score; argument: CC(=O)NCCCC[C@@H]1NC(=O)[C@@H]2C[C@H](C(=O)NCCCCN(C)C)[C@H](c3cccc(OCCO)c3)N2C1=O
0.344

Try COc1ccc([Si](C)(C)[C@H]2[C@H](CC(=O)N3Cc4ccccc4C[C@H]3CO)O[C@@]3(C(=O)N(Cc4ccc(N5CCC5=O)cc4)c4ccccc43)[C@@H]2C)cc1 next.
-6.48

Try O=C1C[C@]2(c3ccc([N+](=O)[O-])cc3)C(=O)N(CCN3CCOCC3)c3cc(CO)ccc3[C@H]2N1C1CCCCC1 next.
-2.16

Try O=C1C2C=CC(C(O)c3c(F)cccc3Cl)N(Nc3ccccc3)C2C(=O)N1c1ccccc1 (stereo not drawn) next.
-0.165

Try CCOC(=O)C[C@H]1[C@H](OC(=O)c2cc3ccccc3oc2=O)[C@@H](NC(=O)C2CCCCC2)c2cc(OCCCO)ccc2N1C(=O)c1ccccc1 next.
-3.06

Try CN1C(=O)C2C=CC(C(O)C3=C[C@H]4C[C@@H](C3)C4(C)C)N(Nc3ccccc3)C2C1=O (stereo partly drawn) next.
0.435

Try CCCCCCC#C[Si](O[C@H](c1ccccc1)c1cn([C@H](CO)Cc2ccccc2)nn1)(C(C)C)C(C)C next.
-0.866

Try Cc1ccc(S[C@]2(C(=O)NC(C)C)CC(=O)N(Cc3ccccc3Cl)[C@@H]2c2ccc(CO)cc2I)cc1 next.
-2.03

Try COCCOC(=O)N1C(=O)[C@@]2(c3cc(C#CCCO)ccc31)[C@H](C(=O)N1CCN(c3ncccn3)CC1)[C@H]1C(=O)O[C@H](c3ccccc3)[C@H](c3ccccc3)N1[C@@H]2c1ccccc1OCCO next.
-2.42

Try COCCOC(=O)N1C(=O)[C@@]2(c3cc(C#CC4=CCCCC4)ccc31)[C@H](c1ccc(O)cc1)N1[C@H](c3ccccc3)[C@H](c3ccccc3)OC(=O)[C@H]1[C@@H]2C(N)=O next.
-1.83

Try COc1ccc([Si](C)(C)[C@H]2[C@H](CCO)O[C@@]3(C(=O)N(C)c4c(Br)cc(C)cc43)[C@@H]2C)cc1 next.
-8.05

Try CC(C)(C)OC(=O)CC[C@]1(C(=O)NCC(O)CO)COC(c2ccc(OCCCO)cc2)=N1 (stereo partly drawn) next.
-0.0229

Try COCCOC(=O)N1C(=O)[C@@]2(c3cc(C#Cc4ccc(OC)cc4)ccc31)[C@H](c1ccc(O)cc1)N1[C@H](c3ccccc3)[C@H](c3ccccc3)OC(=O)[C@H]1[C@@H]2C(=O)NC[C@H](O)c1ccccc1 next.
-3.94

Try COCCOC(=O)N1C(=O)[C@@]2(c3cc(C#CCCO)ccc31)[C@H](c1ccc(OCCO)cc1)N1[C@H](c3ccccc3)[C@H](c3ccccc3)OC(=O)[C@H]1[C@@H]2C(=O)N1CCN(c2ncccn2)CC1 next.
-0.361

Try CCCCCN1CC=CC23O[C@@H]4/C=C\CCCOC(=O)C4[C@H]2C(=O)N(C(CO)C(C)C)[C@@H]3C1=O (stereo partly drawn) next.
-0.0623

Try [N-]=[N+]=Nc1ccccc1[C@H]1OC(c2ccc(OCCCO)cc2)=N[C@@]1(Cc1ccccc1)C(=O)O next.
-1.1

Try CCCCC=C[C@@H](NC(=O)Oc1cccc(C(F)(F)F)c1)c1ccccc1 next.
-3.46

Try CN1C(=O)C2C=CC(C(O)C3CC=CCC3)N(NC(=O)OC(C)(C)C)C2C1=O (stereo not drawn) next.
0.248

Try CC1CC/C=C\[C@H]2OC34C=CCN(C(C)(C)C)C(=O)[C@H]3N(CCCCCCO)C(=O)[C@@H]4C2C(=O)O1 (stereo partly drawn) next.
0.553

Try CN1C(=O)C2C=CC(C(O)c3cccs3)N(Nc3ccccc3)C2C1=O (stereo not drawn) next.
0.593

Try C=CCOC(=O)[C@H]1[C@@H]2C(=O)O[C@@H](c3ccccc3)[C@@H](c3ccccc3)N2[C@@H](c2ccc(OCCOC(=O)[C@@H]3C[C@@H]4C(=O)N5CCC[C@H]5C(=O)N4[C@@H]3c3cccc(OCCO)c3)cc2)[C@]12C(=O)Nc1ccccc12 next.
0.0308

Try C=CCC(OC(C)=O)[C@@H]1[C@@H](N(Cc2ccc(-c3cccc(C(F)(F)F)c3)o2)C(=O)Cc2ccc(F)cc2)c2cc(OCCCO)ccc2N1C(=O)Cc1ccc(OC)cc1 (stereo partly drawn) next.
-0.705

Try CN(C)C(=O)[C@]1(Cc2ccccc2CN=[N+]=[N-])N=C(c2ccc(OCCCO)cc2)O[C@@H]1c1ccccc1CN=[N+]=[N-] next.
-5.26

Try COc1cc2c(cc1O)C(C1CC1)N(Cc1cc3c(cc1Br)OCO3)CC2 (stereo not drawn) next.
-5.73

Try COc1ccc(CCN2C(=O)[C@@]3(Cc4ccccc42)c2ccccc2C(=O)N(Cc2ccccc2C(F)(F)F)[C@H]3c2ccc(CO)cc2)cc1 next.
-4.12

Try CC(CO)N1C(=O)[C@@H]2C3C(=O)OCCC/C=C\[C@H]3OC23C=CCN(c2ccc4ccccc4c2)C(=O)[C@@H]13 (stereo partly drawn) next.
0.645

Try COc1cc(OC)c(C(O)C2C=CC3C(=O)NC(=O)C3N2Nc2ccc(Cl)cc2Cl)cc1Br (stereo not drawn) next.
-2.57

Try O=C(NCc1ccccc1)[C@@]1(Cc2ccccc2)N=C(c2ccc(OCCCO)cc2)O[C@H]1c1ccccc1 next.
-3.5

###

- studySystem: NADPH oxidase 2 (Homo sapiens) (UniProt P04839)
- Sequence (P04839 whole entry, looked up): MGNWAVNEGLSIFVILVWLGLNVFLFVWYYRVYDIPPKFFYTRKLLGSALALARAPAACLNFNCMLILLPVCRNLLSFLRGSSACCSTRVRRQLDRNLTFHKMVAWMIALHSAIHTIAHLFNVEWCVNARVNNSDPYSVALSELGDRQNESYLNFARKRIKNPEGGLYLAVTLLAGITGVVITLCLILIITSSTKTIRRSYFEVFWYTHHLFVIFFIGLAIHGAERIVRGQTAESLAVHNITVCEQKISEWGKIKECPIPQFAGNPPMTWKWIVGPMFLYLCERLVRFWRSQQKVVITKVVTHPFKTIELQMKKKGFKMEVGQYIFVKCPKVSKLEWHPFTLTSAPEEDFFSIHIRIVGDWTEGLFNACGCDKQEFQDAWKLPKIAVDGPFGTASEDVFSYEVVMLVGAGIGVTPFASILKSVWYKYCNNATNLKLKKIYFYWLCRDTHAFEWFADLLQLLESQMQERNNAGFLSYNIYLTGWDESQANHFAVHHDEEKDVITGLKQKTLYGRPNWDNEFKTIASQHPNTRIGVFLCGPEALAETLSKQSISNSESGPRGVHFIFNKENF
- assayInfo: NOX2-dependent H2O2 signal modulators, primary screen, NOX inhibitor project, cell-based, HEK293-NOX2, PMA-stimulated, Amplex Red fluorescence (AID 1159); further: test concentration not given here
- settings: 45 min, higher = more signal, called active from +8 up or from −8 down
condition met means recorded z-score is -0.2 or above; condition not met means it is below -0.2.

In plain terms: is recorded z-score at least -0.2 for O=C1O[C@H](c2ccccc2)[C@H](c2ccccc2)N2[C@H]1[C@@H](C(=O)O)[C@]1(C(=O)Nc3ccc(C#CCCO)cc31)[C@H]2c1ccc(O)cc1 ?
condition met

Try C=CCNC(=O)[C@H]1[C@@H]2C(=O)O[C@@H](c3ccccc3)[C@@H](c3ccccc3)N2[C@@H](c2ccccc2OCCO)[C@]12C(=O)Nc1ccc(C#CC3=CCCCC3)cc12 next.
condition met

Try COC(=O)[C@@]1(Cc2ccc(F)cc2)[C@H]2c3cc(C(=O)N(C)C)n(Cc4nc5ccccc5[nH]4)c3C[C@H]2CN1C(=O)c1ccccc1 next.
condition met

Try O=C1O[C@@H](c2ccccc2)[C@@H](c2ccccc2)N2[C@@H](c3ccc(OCCO)cc3)[C@]3(C(=O)Nc4ccccc43)[C@@H](C(=O)NC[C@H](O)c3ccccc3)[C@H]12 next.
condition met

Try CCCCc1cn(C[C@H](Cc2ccccc2)NC(=O)N[C@H](CO)CCc2oc(C(C)=O)c(C(=O)OC)c2C(=O)OC)nn1 next.
condition not met

Try CC(C)N1C(=O)[C@@]2(Cc3ccccc31)c1ccccc1C(=O)N(C1CCCCC1)[C@H]2c1ccc(CO)cc1 next.
condition met

Try CC(C)c1ccc(NN2C(C(O)C(c3ccccc3)c3ccccc3)C=CC3C(=O)N(c4ccccc4)C(=O)C32)cc1 (centres undefined) next.
condition not met

Try O=C1O[C@H](c2ccccc2)[C@H](c2ccccc2)N2[C@H]1[C@@H](C(=O)N1CCN(c3ncccn3)CC1)[C@]1(C(=O)Nc3ccc(C#CC4=CCCCC4)cc31)[C@H]2c1ccc(O)cc1 next.
condition met

Try CN1C(=O)C2C=CC(C(O)C3CC=CCC3)N(NC(=O)OC(C)(C)C)C2C1=O (centres undefined) next.
condition not met

Try CCCC#C[Si](O[C@H](CC)c1cn([C@H](CO)Cc2ccccc2)nn1)(C(C)C)C(C)C next.
condition met

Try CC(C)C[C@@H]1NC(=O)[C@H]2C[C@@H](C(=O)NCCCCCCN)[C@@H](c3ccc(O)cc3)N2C1=O next.
condition met

Try CC(C)C[C@@H]1NC(=O)[C@H]2C[C@@H](C(=O)NCCCCCCN(C)C)[C@@H](c3ccc(O)cc3)N2C1=O next.
condition met

Try CC(C)(C)OC(=O)CC[C@@]1(C(N)=O)N=C(c2ccc(OCCCO)cc2)O[C@@H]1c1ccccc1 next.
condition not met

Try COC(=O)[C@@]1(Cc2ccccc2)[C@H]2c3cc(C(=O)N(C)C)n(CCSCCO)c3C[C@H]2CN1C(=O)c1ccccc1 next.
condition met
